Where do the numbers come from? From patent US10428140B2.

// reported hEphA1-SEAP-: absorbance at 450 nm, percentage with respect to hEphA4-SEAP-His as 100% for each item listed
measurement-target: T1, human EphA1 (Homo sapiens, UniProt P21709)
T1 construct: a protein of the extracellular region of each human Eph receptor fused with the SEAP protein and the His tag; made in house; host or cells: Expi293F cells (culture supernatant)
T1 sequence (P21709 26-547 limits assumed): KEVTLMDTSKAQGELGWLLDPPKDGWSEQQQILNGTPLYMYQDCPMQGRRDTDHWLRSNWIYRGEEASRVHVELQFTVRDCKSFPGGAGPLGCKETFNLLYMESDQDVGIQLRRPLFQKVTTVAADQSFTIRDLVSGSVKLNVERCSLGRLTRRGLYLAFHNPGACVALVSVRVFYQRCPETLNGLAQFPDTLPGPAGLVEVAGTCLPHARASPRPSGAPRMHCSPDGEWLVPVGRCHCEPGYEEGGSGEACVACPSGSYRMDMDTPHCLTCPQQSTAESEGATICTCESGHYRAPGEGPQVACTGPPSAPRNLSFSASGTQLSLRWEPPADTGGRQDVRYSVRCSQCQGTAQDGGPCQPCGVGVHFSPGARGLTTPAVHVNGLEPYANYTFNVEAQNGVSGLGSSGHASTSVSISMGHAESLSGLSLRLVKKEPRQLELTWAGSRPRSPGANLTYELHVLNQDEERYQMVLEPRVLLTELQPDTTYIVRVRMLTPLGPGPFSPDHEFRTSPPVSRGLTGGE
measurement-protocol: Selectivity ELISA of humanized antibodies for human Eph receptor
Assay type: binding
condition-summary: coated protein 1 nM
observation-type: hEphA1-SEAP-: absorbance at 450 nm, percentage with respect to hEphA4-SEAP-His as 100% (%)

| molecule | assay-value |
| --- | --- |
| 93 (antibody, V domains shown, constant regions without entry; synthetic humanized antibody light chain variable region sequence; synthetic humanized antibody heavy chain variable region sequence) VL: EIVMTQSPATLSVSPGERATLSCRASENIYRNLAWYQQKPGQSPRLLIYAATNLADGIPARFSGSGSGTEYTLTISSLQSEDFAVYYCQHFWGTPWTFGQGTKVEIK VH: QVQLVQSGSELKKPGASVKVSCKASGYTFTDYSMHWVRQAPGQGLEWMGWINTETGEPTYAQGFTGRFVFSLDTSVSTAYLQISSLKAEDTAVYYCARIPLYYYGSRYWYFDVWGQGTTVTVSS | 5.0 |
| 95 (antibody, V domains shown, constant regions without entry; synthetic humanized antibody light chain variable region sequence; synthetic humanized antibody heavy chain variable region sequence) VL: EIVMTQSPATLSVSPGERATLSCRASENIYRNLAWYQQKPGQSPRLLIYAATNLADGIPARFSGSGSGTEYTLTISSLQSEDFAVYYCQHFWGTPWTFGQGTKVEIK VH: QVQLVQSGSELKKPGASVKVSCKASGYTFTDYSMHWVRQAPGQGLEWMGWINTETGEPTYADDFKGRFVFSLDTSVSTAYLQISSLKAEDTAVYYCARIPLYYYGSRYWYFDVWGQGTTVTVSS | 4.5 |
